These entries and their values trace back to PubChem BioAssay (Tox21).

- METHOD DESCRIPTION: qHTS RealTime-Glo MT Cell Viability Assay in HepG2 cells - 40 hour (AID 1224870); further: nearly all actives have a fitted effect of over 50% in size; further: potency means the concentration at half of the fitted maximal effect
- COND: RealTime-Glo luminescence; series mostly up to 76.8 µM
Records with an inconclusive call do not appear. Calls of active or inactive are those of the source. The call rests on the fitted dose curve; in most records, active means well fitted cell-killing curve with a large enough effect in the repeat runs; inconclusive means weak or mixed curves, or effect the other way; inactive means flat fitted curve, though single readings scatter.
ASSAY READOUT: Potency

Please review the following examples before continuing.
>  <COMPOUND>
O=C(O)COc1nc(Cl)c(Cl)cc1Cl

>  <ASSAY READOUT>
Potency

>  <RESULT>
inactive

$$$$
>  <COMPOUND>
Nc1ccc([N+](=O)[O-])cc1Cl

>  <ASSAY READOUT>
Potency

>  <RESULT>
inactive

$$$$
>  <COMPOUND>
C=COCCCl

>  <ASSAY READOUT>
Potency

>  <RESULT>
inactive

$$$$
>  <COMPOUND>
CN(C)S(=O)(=O)N(SC(F)(Cl)Cl)c1ccccc1

>  <ASSAY READOUT>
Potency

>  <RESULT>
9.77 µM (active)

$$$$
>  <COMPOUND>
O=[N+]([O-])c1ccc(Oc2ccc(C(F)(F)F)cc2[N+](=O)[O-])cc1

>  <ASSAY READOUT>
Potency

>  <RESULT>
inactive

$$$$

Batch request: Potency for each of the following compounds.
1. [Hg+2].[I-].[I-]
2. Fc1ccc(Oc2ccnc3cc(Cl)cc(Cl)c23)cc1

A:
["12.3 µM (active)", "inactive"]

Batch request: Potency for each of the following compounds.
1. CC(C)CCCCCCCOP(=O)(Oc1ccccc1)Oc1ccccc1
2. C[C@]12CC[C@@H]3c4ccc(OC(=O)N(CCCl)CCCl)cc4CC[C@H]3[C@@H]1CC[C@@H]2O
3. Oc1ccc(C(=C(Cl)Cl)c2ccc(O)cc2)cc1
4. COc1ccc(N)cc1N
5. COc1ccc(OC)c(CC(C)N)c1 (stereo unspecified)
6. CC(C)C1CCC(Cc2ccc(Cl)cc2)C1(O)Cn1cncn1 (stereo unspecified)
7. Cc1cc(N=Nc2ccccc2C)ccc1N
8. Clc1ccc(Oc2ccccc2)cc1

A:
1: inactive; 2: inactive; 3: inactive; 4: inactive; 5: inactive; 6: 48.5 µM (active); 7: inactive; 8: inactive

###

- METHOD DESCRIPTION: qHTS assay to identify small molecule antagonists of the androgen receptor (AR) signaling pathway using the MDA cell line in the presence of 0.5 nM R1881 - cell viability counter screen (AID 1259242); further: nearly all actives have a fitted effect of over 45% in size
- COND: MDA-kb2 viability, CellTiter-Fluor protease fluorescence, 16 h; series mostly up to 92.4 µM
Results filed as inconclusive are left out. The source made the active and inactive calls. The call rests on the fitted dose curve; in most records, active means well fitted cell-killing curve with a large enough effect in the repeat runs; inconclusive means weak or mixed curves, or effect the other way; inactive means flat fitted curve, though single readings scatter.
Response enum: 1 for active, -1 for inactive

>  <MOLECULE>
CCCCCCCCCCCCCCCCCCn1cc[n+](C)c1

>  <ASSIGNED CATEGORY>
1

$$$$
>  <MOLECULE>
O=[N+]([O-])c1c2ccccc2cc2ccccc12

>  <ASSIGNED CATEGORY>
-1

$$$$
>  <MOLECULE>
Cl/C=C\CCl

>  <ASSIGNED CATEGORY>
-1

$$$$
>  <MOLECULE>
CC(=[OH+])/C=C(/C)[O-].CC(=[OH+])/C=C(\C)[O-].CC(=[OH+])/C=C(\C)[O-].[Al]

>  <ASSIGNED CATEGORY>
-1

$$$$
>  <MOLECULE>
O=C1c2ccccc2C(=O)C1C(=O)C(c1ccccc1)c1ccc(Cl)cc1 (stereo not drawn)

>  <ASSIGNED CATEGORY>
-1

$$$$

Q: Lab log entry: CC(=O)Nc1ccc2c(c1)Cc1ccccc1-2 — outcome as called in the assay?
A: -1

Q: Lab log entry: COCC(=O)N(c1c(C)cccc1C)[C@H](C)C(=O)OC — outcome as called in the assay?
A: -1

###

- METHOD DESCRIPTION: qHTS assay to identify small molecule antagonists of the farnesoid-X-receptor (FXR) signaling pathway - cell viability counter screen (AID 743221); further: nearly all actives have a fitted effect of over 50% in size; further: potency means the concentration at half of the fitted maximal effect
- COND: FXR-bla HEK293T viability, CellTiter-Glo luminescence, 16 h; series mostly up to 62.6 µM
Records with an inconclusive call do not appear. The source made the active and inactive calls. Calls follow the shape of the dose curve; as a rule, active = well fitted cell-killing curve with a large enough effect in the repeat runs (not every such curve was filed as active); inconclusive = weak or mixed curves, or effect the other way; inactive = no such curve, though single readings can be large or run the other way.
ASSAY READOUT: Potency

>  <STRUCTURE NOTATION>
CC(C)(C)OO

>  <Potency>
inactive

$$$$
>  <STRUCTURE NOTATION>
CCCN(CCC)c1c([N+](=O)[O-])cc(S(N)(=O)=O)cc1[N+](=O)[O-]

>  <Potency>
52.2 µM (active)

$$$$
>  <STRUCTURE NOTATION>
C[C@H]1O[C@@H](O[C@H]2[C@@H](O)C[C@H](O[C@H]3[C@@H](O)C[C@H](O[C@H]4CC[C@@]5(C)[C@H](CC[C@@H]6[C@@H]5CC[C@]5(C)[C@@H](C7=CC(=O)OC7)CC[C@]65O)C4)O[C@@H]3C)O[C@@H]2C)C[C@H](O)[C@@H]1O

>  <Potency>
0.0139 µM (active)

$$$$
>  <STRUCTURE NOTATION>
O=[N+]([O-])c1cc([N+](=O)[O-])c2ccccc2c1

>  <Potency>
inactive

$$$$
>  <STRUCTURE NOTATION>
CC(C)OC(=O)C(O)(c1ccc(Cl)cc1)c1ccc(Cl)cc1

>  <Potency>
inactive

$$$$
>  <STRUCTURE NOTATION>
CC(=O)Nc1ccc2c(c1)Cc1ccccc1-2

>  <Potency>
inactive

$$$$

Batch request: Potency for each of the following molecules.
1. Cc1cc(SCc2sc(-c3ccc(C(F)(F)F)c(F)c3)nc2C)ccc1OCC(=O)O
2. c1ccc2cc3c(cc2c1)-c1cccc2cccc-3c12
3. C[C@]12CC[C@H]3[C@@H](CCC4=CC(=O)CC[C@@]43C)[C@@H]1CC[C@@H]2O
4. N#CNC#N

A:
inactive
inactive
inactive
inactive

###

- METHOD DESCRIPTION: qHTS RealTime-Glo MT Cell Viability Assay in HEK293 cells - 32 hour (AID 1224868); further: nearly all actives have a fitted effect of over 50% in size
- COND: RealTime-Glo luminescence; series mostly up to 76.8 µM
Inconclusive results are not listed. Calls of active or inactive are those of the source. Calls come from the whole dose curve; as a rule, active = well fitted cell-killing curve with a large enough effect in the repeat runs; inconclusive = weak or mixed curves, or effect the other way; inactive = flat fitted curve, though single readings scatter.
Response enum: active, inactive

>  <COMPOUND>
CCCN(CCC)c1c([N+](=O)[O-])cc(S(N)(=O)=O)cc1[N+](=O)[O-]

>  <ASSIGNED CATEGORY>
active

$$$$
>  <COMPOUND>
CC(=O)c1cc(C(C)(C)C)cc2c1CCC2(C)C

>  <ASSIGNED CATEGORY>
inactive

$$$$
>  <COMPOUND>
N#CCCSCCC#N

>  <ASSIGNED CATEGORY>
inactive

$$$$
>  <COMPOUND>
S=C(SSC(=S)N1CCCCC1)N1CCCCC1

>  <ASSIGNED CATEGORY>
active

$$$$
>  <COMPOUND>
Oc1ccc(I)cc1

>  <ASSIGNED CATEGORY>
inactive

$$$$
>  <COMPOUND>
O=C1c2ccccc2C(=O)C1C(=O)C(c1ccccc1)c1ccc(Cl)cc1 (configuration not stated)

>  <ASSIGNED CATEGORY>
inactive

$$$$

Q: Lab log entry: O=C(CCl)C(Cl)Cl — outcome as called in the assay?
A: active

###

- METHOD DESCRIPTION: qHTS assay to identify small molecule antagonists of the retinoic acid receptor (RAR) signaling pathway (AID 1159552; further: nearly all actives have a fitted effect of over 50% in size; further: potency means the concentration at half of the fitted maximal effect)
- COND: C3RL4 RARE luciferase reporter, retinol-stimulated, 6 h; series mostly up to 92.4 µM
Results filed as inconclusive are left out. Active and inactive are the calls of the source. The call rests on the fitted dose curve; in most records, active means well fitted inhibition curve with a large enough effect in the repeat runs; inconclusive means weak or mixed curves, or effect the other way; inactive means no such curve, though single readings can be large or run the other way.
ASSAY READOUT: Potency

Please review the following examples before continuing.
>  <MOLECULE>
COS(=O)(=O)c1ccc(C)cc1

>  <Potency>
inactive

$$$$
>  <MOLECULE>
CC[C@H](C)[C@H]1O[C@]2(C=C[C@@H]1C)C[C@@H]1C[C@@H](C/C=C(\C)[C@@H](O[C@H]3C[C@H](OC)[C@@H](O[C@H]4C[C@H](OC)[C@@H](O)[C@H](C)O4)[C@H](C)O3)[C@@H](C)/C=C/C=C3\CO[C@@H]4[C@H](O)C(C)=C[C@@H](C(=O)O1)[C@]34O)O2

>  <Potency>
32.2 µM (active)

$$$$
>  <MOLECULE>
COc1ccc(/C(=C/C(=O)N2CCOCC2)c2ccc(Cl)cc2)cc1OC

>  <Potency>
inactive

$$$$
>  <MOLECULE>
BrC(Br)Br

>  <Potency>
inactive

$$$$
>  <MOLECULE>
CCCCCCCCCCCCBr

>  <Potency>
inactive

$$$$
>  <MOLECULE>
Cc1cccc(OP(=O)(Oc2cccc(C)c2)Oc2cccc(C)c2)c1

>  <Potency>
inactive

$$$$
>  <MOLECULE>
BrCC(Br)c1ccccc1 (stereo unspecified)

>  <Potency>
inactive

$$$$
>  <MOLECULE>
CC(c1ccc(O)cc1)c1ccc(O)cc1

>  <Potency>
inactive

$$$$
>  <MOLECULE>
C=CCOC(N)=O

>  <Potency>
inactive

$$$$
>  <MOLECULE>
N#CSCSC#N

>  <Potency>
24.9 µM (active)

$$$$

Q: Suppose we examine the molecule CCCN(CCC)CCc1c[nH]c2ccccc12 ; what Potency value has been reported?
A: inactive
